Values were extracted from patent US4210638A.

# method: Cytotoxicity vs HEp-2 cells (colony formation, % survival)
# test parameters: human, hep-2 cells, Average % S, 0.3 mM, -H4 U, average
attribute measured: viability at 48 h, 300 µM

Field request: viability at 48 h, 300 µM | item: "Nc1nc(=O)n([C@H]2C[C@H](O)[C@@H](CO)O2)cc1C(F)(F)F"
< 0.01%

---

# method: Cytotoxicity vs HEp-2 cells (colony formation, % survival)
# test parameters: human, hep-2 cells, % Survival, 0.03 mM, +H4 U 500 μg/ml (experiment 3 and 4)
attribute measured: viability at 48 h, 30 µM (%)
The reply should be a number in %, with the unit left off.

Given the compound "Nc1nc(=O)n([C@H]2C[C@H](O)[C@@H](CO)O2)cc1C(F)(F)F" , what is its reported viability at 48 h, 30 µM?
25

---

# method: Cytotoxicity vs HEp-2 cells (colony formation, % survival)
# test parameters: human, hep-2 cells, Average % S, 0.03 mM, +H4 U, average
attribute measured: viability at 48 h, 30 µM (%)
Give the quantity in %, number only.

Which viability at 48 h, 30 µM value is on record for Nc1nc(=O)n([C@H]2C[C@H](O)[C@@H](CO)O2)cc1C(F)(F)F [F3 methyl dC, 5-trifluoromethyl-2'-deoxycytidine] ?
32

---

# method: Cytotoxicity vs HEp-2 cells (colony formation, % survival)
# test parameters: human, hep-2 cells, % S of HEp-2 cells, 0.06 mM, +2'dH4 U 500 μg/ml
attribute measured: viability at 48 h, 60 µM (%)
A number alone suffices; assume %.

Which viability at 48 h, 60 µM value is on record for Nc1nc(=O)n([C@H]2C[C@H](O)[C@@H](CO)O2)cc1C(F)(F)F [F3 methyl dC, 5-trifluoromethyl-2'-deoxycytidine] ?
50

---

# method: Cytotoxicity vs HEp-2 cells (colony formation, % survival)
# test parameters: human, hep-2 cells, % Survival, 0.3 mM, +H4 U 500 μg/ml (experiment 3 and 4)
attribute measured: viability at 48 h, 300 µM
Just so you know, I need the unit written after the number.

Tell me the measured viability at 48 h, 300 µM of Nc1nc(=O)n([C@H]2C[C@H](O)[C@@H](CO)O2)cc1C(F)(F)F [F3 methyl dC, 5-trifluoromethyl-2'-deoxycytidine] , please.
0.001%

---

# method: Cytotoxicity vs HEp-2 cells (colony formation, % survival)
# test parameters: human, hep-2 cells, % Survival, 0.003 mM, +H4 U 500 μg/ml (experiment 3 and 4)
attribute measured: viability at 48 h, 3 µM

Which measured viability at 48 h, 3 µM value corresponds to "Nc1nc(=O)n([C@H]2C[C@H](O)[C@@H](CO)O2)cc1C(F)(F)F" ?
53%

---

# method: Cytotoxicity vs HEp-2 cells (colony formation, % survival)
# test parameters: human, hep-2 cells, Average % S, 0.3 mM, +H4 U, average
attribute measured: viability at 48 h, 300 µM

Given "Nc1nc(=O)n([C@H]2C[C@H](O)[C@@H](CO)O2)cc1C(F)(F)F" , state its recorded viability at 48 h, 300 µM.
< 0.01%

---

# method: Cytotoxicity vs HEp-2 cells (colony formation, % survival)
# test parameters: human, hep-2 cells, Average % S, 0.003 mM, +H4 U, average
attribute measured: viability at 48 h, 3 µM (%)
Kindly provide the numeric value in % only, without the unit symbol.

viability at 48 h, 3 µM for "Nc1nc(=O)n([C@H]2C[C@H](O)[C@@H](CO)O2)cc1C(F)(F)F" ?
77
